# Test system: P388 leukemia ip, CD2F1 mice, survival T/C
# assayInfo: NCI In Vivo Anticancer Drug Screen. Data for tumor model P388 Leukemia (intraperitoneal) in CD2F1 (CDF1) mice
# conditionContext: endpoint: median survival time; dose: 100.0 mg/kg/injection; schedule: Q04DX002 (ip); vehicle: Klucel (hydroxypropylcellulose) (HPC); higher = longer survival
Toxic doses and inconclusive results are not listed.
The molecules listed here are annotated with their T/C.

# example entries with known answers
>>> experimentalvalue("O=C1SC/C(=N\\N=c2/scc(-c3ccc(Br)cc3)n2-c2ccc(Br)cc2)N1Cc1ccccc1")
"91 % of control"
>>> experimentalvalue("CC(/C=C/c1ccccc1)=N\\NC(=S)Nc1ccc(Cl)cc1")
"108 % of control"
>>> experimentalvalue("O=C1/C(=C/c2ccccc2)CCCC12C(c1ccccc1)N2C1CCCCC1 (stereo unspecified)")
"93 % of control"
>>> experimentalvalue("Cc1cnc(=O)[nH]c1NO")
"102 % of control"
>>> experimentalvalue("CC1(CO)C(O)CCC2(C)C1CCC1CC3CC12CCC3(O)CO (stereo unspecified)")
"100 % of control"

Proceeding to the next molecule to report its T/C.
Input: Give its T/C value. Item: CC(C)=CCSc1ccccc1
Output: 104 % of control

====

# System: P388 leukemia ip, CD2F1 mice, survival T/C
# assayInfo: NCI In Vivo Anticancer Drug Screen. Data for tumor model P388 Leukemia (intraperitoneal) in CD2F1 (CDF1) mice
# conditionContext: endpoint: median survival time; dose: 25.0 mg/kg/injection; schedule: Q04DX003 (ip); vehicle: saline; higher = longer survival
Toxic doses and inconclusive results are not listed.
observedProperty: T/C

>>> experimentalvalue("CCOC(=O)C1(c2ccccc2)CCCN(C)CC1 (stereo not drawn)")
"107 % of control"
>>> experimentalvalue("CCCCCCN(CCCCCC)P(=O)(N1CC1C)N1CC1C (stereo not drawn)")
"95 % of control"

Input: Give its T/C value. Item: Nc1ccc(Nc2c3ccccc3nc3ccccc23)cc1
Output: 121 % of control

====

# System: P388 leukemia ip, CD2F1 mice, survival T/C
# assayInfo: NCI In Vivo Anticancer Drug Screen. Data for tumor model P388 Leukemia (intraperitoneal) in CD2F1 (CDF1) mice
# conditionContext: endpoint: median survival time; dose: 400.0 mg/kg/injection; schedule: Q04DX003 (ip); vehicle: saline with Tween-80; higher = longer survival
# Experimental: The antitumor activity of compounds was measured in mice bearing transplantable tumors. Survival or tumor size were measured and the results are expressed as the measurement made in the treated group (T) divided by the measurement made in the vehicle treated control group (C). The tumor model used in this assay is P388 Leukemia (intraperitoneal) in CD2F1 (CDF1) mice
Toxic doses and inconclusive results are not listed.
observedProperty: T/C

>>> experimentalvalue("[O-][n+]1nn(CC(O)CCl)c2ccccc21 (centres undefined)")
"93 % of control"

Proceeding to the next compound to report its T/C.
Input: Give its T/C value. Item: C=CCn1c(=S)[nH]c2ccccc2c1=O
Output: 90 % of control

====

# Tested on: P388 leukemia ip, CD2F1 mice, survival T/C
# assayInfo: NCI In Vivo Anticancer Drug Screen. Data for tumor model P388 Leukemia (intraperitoneal) in CD2F1 (CDF1) mice
# conditionContext: endpoint: median survival time; dose: 50.0 mg/kg/injection; schedule: Q01DX009 (ip); vehicle: saline; higher = longer survival
Toxic doses and inconclusive results are not listed.
observedProperty: T/C

>>> experimentalvalue("NC(=O)C[n+]1ccccc1")
"101 % of control"
>>> experimentalvalue("CC1(C)SC2C(NC(=O)C(N)c3ccc(O)cc3)C(=O)N2C1C(=O)O (centres undefined)")
"113 % of control"
>>> experimentalvalue("O=C(NC1CCCCC1)N1CCCC1")
"99 % of control"

Proceeding to the next compound to report its T/C.
Input: Give its T/C value. Item: CCOCC(=O)O
Output: 95 % of control

====

# System: P388 leukemia ip, CD2F1 mice, survival T/C
# assayInfo: NCI In Vivo Anticancer Drug Screen. Data for tumor model P388 Leukemia (intraperitoneal) in CD2F1 (CDF1) mice
# conditionContext: endpoint: median survival time; dose: 7.5 mg/kg/injection; schedule: Q01DX005 (ip); vehicle: saline with Tween-80; higher = longer survival
Inconclusive results and toxic doses are left out.
observedProperty: T/C

>>> experimentalvalue("O=C(Nc1cccc(Br)c1)Oc1ccc(Cl)c2cccnc12")
"107 % of control"
>>> experimentalvalue("COC(=O)C1=CN(CCc2ccc(O)cc2)C(=O)C2C1CC(O)C2C (stereo not drawn)")
"99 % of control"

Proceeding to the next compound to report its T/C.
Input: Give its T/C value. Item: CCOC(=O)N(C)N=NCCCl
Output: 117 % of control

====

# Test system: P388 leukemia ip, CD2F1 mice, survival T/C
# assayInfo: NCI In Vivo Anticancer Drug Screen. Data for tumor model P388 Leukemia (intraperitoneal) in CD2F1 (CDF1) mice
# conditionContext: endpoint: median survival time; dose: 50.0 mg/kg/injection; schedule: Q01DX009 (ip); vehicle: saline with Tween-80
Toxic doses and inconclusive results are not listed. Rule for the calls: active = survival T/C of 150% or more; inactive = T/C below 125% in these data.
Field 'call' accepts active, inactive

>>> grouplabel("COc1ccc(O)c(C(c2cc(OC)ccc2O)c2cc(OC)ccc2O)c1")
"inactive"

Input: I would be grateful if you could indicate the recorded call for CC(=O)NS(=O)(=O)c1ccc(N=NC2C(=O)N(C(=O)c3ccncc3)N=C2C)cc1 (configuration not stated) .
Output: inactive

Input: I would be grateful if you could indicate the recorded call for Cc1ccc(N2C(=O)c3ccccc3NC2(C)CCl)cc1 (configuration not stated) .
Output: inactive

Input: I would be grateful if you could indicate the recorded call for CCN(CC)Cc1c2c(O)c3c(O)c(C)c4c(c3c1O)C(=O)C(C)(O/C=C/C(OC)C(C)C(OC(C)=O)C(C)C(O)C(C)C(O)C(C)/C=C/C=C(\C)C(=O)N2)O4 (configuration not stated) .
Output: inactive

Input: I would be grateful if you could indicate the recorded call for CC(C)(CO)COC1OCN(C(C)(C)C)CC1(C)C (configuration not stated) .
Output: inactive

Input: I would be grateful if you could indicate the recorded call for COc1cc([C@@H]2c3cc4c(cc3[C@H](OC(C)=O)[C@H]3COC(=O)[C@@H]23)OCO4)cc(OC)c1OC .
Output: active

Input: I would be grateful if you could indicate the recorded call for O=[N+]([O-])c1ccc(Cl)nc1 .
Output: inactive

====

# System: P388 leukemia ip, CD2F1 mice, survival T/C
# assayInfo: NCI In Vivo Anticancer Drug Screen. Data for tumor model P388 Leukemia (intraperitoneal) in CD2F1 (CDF1) mice
# conditionContext: endpoint: median survival time; dose: 50.0 mg/kg/injection; schedule: Q01DX009 (ip); vehicle: saline; higher = longer survival
Inconclusive results and toxic doses are left out.
The molecules listed here are annotated with their T/C.

Input: Notebook: pull reported T/C for P388 leukemia ip, CD2F1 mice, survival T/C, entry C[C@]12CCC(=O)C=C1CC[C@H]1[C@@H]3C[C@@H](O)[C@](O)(C(=O)CO)[C@@]3(C)C[C@H](O)[C@@]12F
Output: 109 % of control

Input: Notebook: pull reported T/C for P388 leukemia ip, CD2F1 mice, survival T/C, entry CCC(C)C(=O)Nc1ccccc1-c1ccccc1 (configuration not stated)
Output: 91 % of control

Input: Notebook: pull reported T/C for P388 leukemia ip, CD2F1 mice, survival T/C, entry Cc1cc(C)n(-c2ccncc2[N+](=O)[O-])n1
Output: 101 % of control

Input: Notebook: pull reported T/C for P388 leukemia ip, CD2F1 mice, survival T/C, entry CN(C)CCC(=O)c1ccccc1
Output: 104 % of control

Input: Notebook: pull reported T/C for P388 leukemia ip, CD2F1 mice, survival T/C, entry CN1CC2Cc3ccc(O)cc3C(C)(C2)C1 (configuration not stated)
Output: 98 % of control

Input: Notebook: pull reported T/C for P388 leukemia ip, CD2F1 mice, survival T/C, entry CC(CC(=O)O)C(N)C(=O)O (configuration not stated)
Output: 92 % of control

Input: Notebook: pull reported T/C for P388 leukemia ip, CD2F1 mice, survival T/C, entry CC1(C)CC2(CC3(C1)S(=O)(=O)CCS3(=O)=O)S(=O)(=O)CCS2(=O)=O
Output: 100 % of control

====

# Test system: P388 leukemia ip, CD2F1 mice, survival T/C
# assayInfo: NCI In Vivo Anticancer Drug Screen. Data for tumor model P388 Leukemia (intraperitoneal) in CD2F1 (CDF1) mice
# conditionContext: endpoint: median survival time; dose: 200.0 mg/kg/injection; schedule: Q01DX009 (ip); vehicle: Klucel (hydroxypropylcellulose) (HPC); higher = longer survival
Inconclusive results and toxic doses are left out.
The compounds listed here are annotated with their T/C.

# example entries with known answers
>>> experimentalvalue("CS(=O)(=O)c1ccccc1NN")
"100 % of control"
>>> experimentalvalue("[N-]=[N+]=Nc1cccc(Nc2c3ccccc3nc3ccccc23)c1")
"107 % of control"
>>> experimentalvalue("CN(C)CCCC12OC(c3ccccc31)C(O)c1ccccc12 (stereo not given)")
"94 % of control"
>>> experimentalvalue("NS(=O)(=O)c1cccc(NC(=O)c2ccco2)c1")
"94 % of control"

Proceeding to the next compound to report its T/C.
Input: Give its T/C value. Item: O=C1CCSC(=S)N1C(=O)c1ccccc1
Output: 109 % of control
